System: NCI-H460 lung
Assay: NCI tumour cell line growth inhibition, 48 h
property: TGI

Previously resolved entries follow.
CC(=O)c1cccc(NC(=O)c2ccc(NC3=C(Cl)C(=O)N(Cc4ccccc4)C3=O)cc2)c1 | > 100 µM
CC(=O)c1ccccc1NS(=O)(=O)c1ccc2nc(C)n(NS(=O)(=O)c3ccccc3C(C)=O)c(=O)c2c1 | > 100 µM
CN1CCN(c2ccc(C(=O)Nc3cccc(C#Cc4cccc5[nH]nc(N)c45)c3)cc2C(F)(F)F)CC1 | 1.5 µM
COc1ccc(/C=C2\CN(C)CC3C2=NN(c2ccccc2)C3c2ccc(OC)cc2)cc1 (centres undefined) | > 100 µM

Param readout= TGI; system= NCI-H460 lung; entry= CC1(C)N=C(N)N=C(N)N1c1ccc(Cl)c(Cl)c1 ; returns value.
> 100 µM

How about this molecule: Oc1ccccc1-c1nn2c(CCCCCCCCc3nnc4sc(-c5ccccc5O)nn34)nnc2s1
> 100 µM

How about this molecule: Oc1c2c(c(O)c3ccccc13)C1(N=N2)c2ccccc2Oc2ccccc21
46.3 µM

How about this molecule: C/C(=C1\C(=O)C(c2ccccc2)N(c2ccccc2)C1=O)c1ccc(Cl)cc1 (centres undefined)
> 100 µM

How about this molecule: CC1(C)CC(=O)c2c(ccc(C(=O)C[C@@H](N)CO)c2N)O1
> 100 µM

Provenance of the data: PubChem BioAssay (NCI)
